Every entry's value here was drawn from ChEMBL document CHEMBL1806454.

Organism: Homo sapiens
protocol description: Selectivity index, ratio of Ki for recombinant human MAOB to Ki for recombinant human MAOA
Some molecules, each annotated with its measured Ratio Ki.
readout type: Ratio Ki

| molecule | readout type | observed measurement |
| --- | --- | --- |
| Cn1c(=O)c2c(nc(OCCCc3ccccc3)n2C)n(C)c1=O | Ratio Ki | 0.019 |
| Cn1c(=O)c2c(nc(OCCc3ccccc3)n2C)n(C)c1=O | Ratio Ki | 0.39 |
| Cn1c(=O)c2c(nc(OCCOc3ccccc3)n2C)n(C)c1=O | Ratio Ki | 0.0036 |
| Cn1c(=O)c2c(nc(OCCOc3ccc(Br)cc3)n2C)n(C)c1=O | Ratio Ki | 0.207 |
| Cn1c(=O)c2c(nc(OCC3CCCC3)n2C)n(C)c1=O | Ratio Ki | 1.46 |
| Cn1c(=O)c2c(nc(Oc3ccccc3)n2C)n(C)c1=O | Ratio Ki | 0.3 |
| Cn1c(=O)c2c(nc(OCc3ccc(Br)cc3)n2C)n(C)c1=O | Ratio Ki | 0.099 |
| Cn1c(=O)c2c(nc(OCC3CC=CCC3)n2C)n(C)c1=O (stereo not drawn) | Ratio Ki | 0.45 |
| CC(C)CCCCOc1nc2c(c(=O)n(C)c(=O)n2C)n1C | Ratio Ki | 0.053 |
| Cn1c(=O)c2c(nc(OCC3CCCCC3)n2C)n(C)c1=O | Ratio Ki | 0.16 |
| Cn1c(=O)c2c(nc(OCc3ccc(Cl)cc3)n2C)n(C)c1=O | Ratio Ki | 0.1 |
| CC(C)CCOc1nc2c(c(=O)n(C)c(=O)n2C)n1C | Ratio Ki | 1.08 |
| Cn1c(=O)c2c(nc(OCCOCc3ccccc3)n2C)n(C)c1=O | Ratio Ki | 0.047 |
